# %Inh per record follows
Tested on: TAK1
Construct: gene MAP3K7
Conditions: concentration: 1 μM, replicates: in singlicate; n = 1;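 also: KINOMEscan kinase panel screen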
Hi! Could you send only the number? It should be in %, unit omitted.

// known answers, use as guide
c1ccc(Oc2ccc(Nc3ccnc4cc(-c5ccc(CN6CCCCC6)o5)ccc34)cc2)nc1 :: 0
Nc1cccc(-c2ccc3c(N)n[nH]c3c2)c1 :: 0

Report value: %Inh, system: TAK1, molecule: `CC(C)c1nc(-c2cccc(NS(=O)(=O)c3c(F)cccc3F)c2)c(-c2ccnc(Nc3ccc(N4CCOCC4)nc3)n2)s1.Cl`
81

---

Tested on: RIOK1
Settings: concentration: 1 μM, replicates: in singlicate; n = 1
# %Inh per record follows
Hi! Could you send only the number? It should be in %, unit omitted.

// known answers, use as guide
CN(C)CCOc1ccc(-c2cc(-c3ccc(Cl)c(O)c3)c(-c3ccncc3)[nH]2)cc1.Cl.Cl [SB-684387] :: 0
CC(=O)Nc1cn2nc(Oc3cccc(NC(=O)c4cccc(C(F)(F)F)c4)c3)ccc2n1 :: 0
CN1CCN(Cc2ccc(NC(=O)Nc3ccc(N(C)c4ccnc(Nc5ccc(CS(C)(=O)=O)cc5)n4)cc3)cc2)CC1.Cl [GW827654] :: 94.1

Dear colleague, please send me the reported %Inh for `CCNC(=O)/C=C/c1n[nH]c2cc(Sc3ccccc3C(=O)NC)ccc12` when you can.
0

Dear colleague, please send me the reported %Inh for COc1ccc(C)c(Nc2ccnc(Nc3ccc(-c4cnc[nH]4)cc3)n2)c1.Cl [GW784041] when you can.
36

Dear colleague, please send me the reported %Inh for Nc1ncnc2scc(-c3ccc(NC(=O)Cc4cc(F)ccc4F)cc3)c12.O=C(O)C(F)(F)F [SB-731254-M] when you can.
0

---

Test system: PIP5K2B
Conditions: concentration: 1 μM, replicates: in singlicate; n = 1
Quick rule: %Inh of at least 1% means Condition met, below that means Condition not met.

In plain terms: is recorded %Inh at least 1% for `Cc1ccc(O)cc1Nc1ccnc2cc(-c3ccc(CN4CCCCC4)o3)ccc12` ?
Condition not met

---

Test system: NEK5
Settings: concentration: 1 μM, replicates: in singlicate; n = 1
Quick rule: %Inh of at least 10% means class 1, below that means class 0.

Nc1ncc(-c2cn[nH]c2)c2scc(-c3ccc4c(c3)CCN4C(=O)Cc3ccccc3)c12 :: class 1

In plain terms: is recorded %Inh at least 10% for `Cc1nn2c(=O)cc(N3CCO[C@H](C)C3)nc2n1Cc1cccc(Cl)c1Cl` ?
class 1

In plain terms: is recorded %Inh at least 10% for `CN(c1ccc(NC(=O)N2CCN(CCCN3CCOCC3)CC2)cc1)c1ccnc(Nc2ccc(CS(C)(=O)=O)cc2)n1.Cl` ?
class 0

---

System: MAP3K1
Settings: concentration: 1 μM, replicates: in singlicate; n = 1
# %Inh per record follows
Hi! Could you send only the number? It should be in %, unit omitted.

Cn1cc(-c2ccc3c(c2)CCN3C(=O)Cc2cc(F)cc(F)c2F)c2c(N)ncnc21 :: 10
CS(=O)(=O)c1cccc(CNc2nc(Nc3ccc4c(c3)CCC(=O)N4)ncc2C(F)(F)F)c1 :: 0
Cc1ccc(Nc2ccnc(Nc3ccc(C)c(F)c3)n2)cc1O.Cl :: 2
CC(C)(C)c1ccc(C(=O)Nc2cn3cc(-n4ccnc4)ccc3n2)cc1 :: 12
CC(C)c1nc(-c2ccc(F)c(NS(=O)(=O)c3c(F)cccc3F)c2)c(-c2ccnc(Nc3ccc(N4CCOCC4)nc3)n2)s1 :: 17

Dear colleague, please send me the reported %Inh for `Nc1cccc(-c2ccc3c(N)n[nH]c3c2)c1` when you can.
100

Dear colleague, please send me the reported %Inh for `COc1ccc(NC(=O)c2ccoc2)cc1-c1ccc(C(=O)NCC2CC2)cc1` when you can.
13
